Test system: Streptococcus pneumoniae ATCC 6303
Assay: In vitro agar dilution MIC, organism code XX
Type: cell-based
Conditions: Table 1B, unit assumed
Assignment: determine reported MIC for the given molecules.
One number for each entry, in µg/mL.

Quick batch: MIC for everything below.
1. CC[C@H]1OC(=O)C(C)(Cl)C(=O)[C@H](C)[C@@H](O[C@@H]2O[C@H](C)C[C@H](N(C)C)[C@H]2O)[C@](C)(OC)C[C@@H](C)C2=NCCN3C(=O)O[C@@]1(C)[C@H]3[C@H]2C (some centres unmarked)
2. CC[C@H]1OC(=O)[C@@](C)(F)C(=O)[C@H](C)[C@@H](O[C@@H]2O[C@H](C)C[C@H](N(C)C)[C@H]2O)[C@](C)(OC/C=C/c2cnc3ccccc3c2)C[C@@H](C)C(=O)[C@H](C)[C@H]2NC(=O)O[C@@]21C

Output line:
1. 4
2. 0.03

----------
Tested on: Escherichia coli SS
Test: In vitro agar dilution MIC, organism code RR
Type: cell-based
Settings: Table 1B, in µg/mL (unit assumed)
Protocol: Representative compounds of the present invention were assayed in vitro for antibacterial activity as follows: Twelve petri dishes containing successive aqueous dilutions of the test compound mixed with 10 mL of sterilized Brain Heart Infusion (BHI) agar (Difco 0418-01-5) were prepared. Each plate was inoculated with 1:100 (or 1:10 for slow-growing strains, such as Micrococcus and Streptococcus) dilutions of up to 32 different microorganisms, using a Steers replicator block. […]
Consider the following compounds; for each one, report its MIC.
Answers are plain numbers.

The examples below pair each entry with its known result.
CC[C@H]1OC(=O)C(C)(F)C(=O)[C@H](C)[C@@H](O[C@@H]2O[C@H](C)C[C@H](N(C)C)[C@H]2O)[C@](C)(OC)C[C@@H](C)C2=NCCN3C(=O)O[C@@]1(C)[C@H]3[C@H]2C (some centres unmarked) | 0.2
CC[C@H]1OC(=O)[C@@](C)(F)C(=O)[C@H](C)[C@@H](O[C@@H]2O[C@H](C)C[C@H](N(C)C)[C@H]2O)[C@](C)(OC/C=C/c2cnc3ncccc3c2)C[C@@H](C)C(=O)[C@H](C)[C@H]2NC(=O)O[C@@]21C | 0.2
CC[C@H]1OC(=O)[C@@](C)(F)C(=O)[C@H](C)[C@@H](O[C@@H]2O[C@H](C)C[C@H](N(C)C)[C@H]2O)[C@](C)(OC/C=C/c2cnc3ccc([N+](=O)[O-])cc3c2)C[C@@H](C)C(=O)[C@H](C)[C@H]2NC(=O)O[C@@]21C | 0.05
CC[C@H]1OC(=O)[C@@](C)(F)C(=O)[C@H](C)[C@@H](O[C@@H]2O[C@H](C)C[C@H](N(C)C)[C@H]2O)[C@](C)(OC/C=C/c2cnc3ccc(C=NN=C(C)C)cc3c2)C[C@@H](C)C(=O)[C@H](C)[C@H]2NC(=O)O[C@@]21C | 0.78
CC[C@H]1OC(=O)C(C)(Br)C(=O)[C@H](C)[C@@H](O[C@@H]2O[C@H](C)C[C@H](N(C)C)[C@H]2O)[C@](C)(OC)C[C@@H](C)C2=NCCN3C(=O)O[C@@]1(C)[C@H]3[C@H]2C (some centres unmarked) | 0.39
CC[C@H]1OC(=O)C(C)(Cl)C(=O)[C@H](C)[C@@H](O[C@@H]2O[C@H](C)C[C@H](N(C)C)[C@H]2O)[C@](C)(OC)C[C@@H](C)C2=NCCN3C(=O)O[C@@]1(C)[C@H]3[C@H]2C (some centres unmarked) | 0.78

Give MIC for each listed item.
1. CC[C@H]1OC(=O)[C@@](C)(F)C(=O)[C@H](C)[C@@H](O[C@@H]2O[C@H](C)C[C@H](N(C)C)[C@H]2O)[C@](C)(OC/C=C/c2ccccc2)C[C@@H](C)C(=O)[C@H](C)[C@H]2NC(=O)O[C@@]21C
2. CC[C@H]1OC(=O)[C@@](C)(F)C(=O)[C@H](C)[C@@H](O[C@@H]2O[C@H](C)C[C@H](N(C)C)[C@H]2O)[C@](C)(OC/C=C/c2cnc3ccc(N(C)C)cc3c2)C[C@@H](C)C(=O)[C@H](C)[C@H]2NC(=O)O[C@@]21C

Output line:
0.1
0.78

----------
System: Streptococcus pyogenes 930
Test: In vitro agar dilution MIC, organism code MM
Type: cell-based
Conditions: Table 1B, unit assumed
readout-label: MIC

CC[C@H]1OC(=O)C(C)(Cl)C(=O)[C@H](C)[C@@H](O[C@@H]2O[C@H](C)C[C@H](N(C)C)[C@H]2O)[C@](C)(OC)C[C@@H](C)C2=NCCN3C(=O)O[C@@]1(C)[C@H]3[C@H]2C (stereo partly shown) | > 100 µg/mL
CC[C@H]1OC(=O)[C@@](C)(F)C(=O)[C@H](C)[C@@H](O[C@@H]2O[C@H](C)C[C@H](N(C)C)[C@H]2O)[C@](C)(OC/C=C/c2ccccc2)C[C@@H](C)C(=O)[C@H](C)[C@H]2NC(=O)O[C@@]21C | 25 µg/mL
CC[C@H]1OC(=O)[C@@](C)(F)C(=O)[C@H](C)[C@@H](O[C@@H]2O[C@H](C)C[C@H](N(C)C)[C@H]2O)[C@](C)(OC/C=C/c2ccc3ncccc3c2)C[C@@H](C)C(=O)[C@H](C)[C@H]2NC(=O)O[C@@]21C | 0.39 µg/mL

Form: compound = CC[C@H]1OC(=O)C(C)(F)C(=O)[C@H](C)[C@@H](O[C@@H]2O[C@H](C)C[C@H](N(C)C)[C@H]2O)[C@](C)(OCC#Cc2cnc3ccccc3c2)C[C@@H](C)C(=O)[C@H](C)[C@H]2NC(=O)O[C@@]21C (stereo partly shown) ; MIC = 0.1 µg/mL

----------
System: Staphylococcus aureus A-5278
Test: In vitro agar dilution MIC, organism code CC
Format: cell-based
Conditions: Table 1B, unit assumed
Procedure: Representative compounds of the present invention were assayed in vitro for antibacterial activity as follows: Twelve petri dishes containing successive aqueous dilutions of the test compound mixed with 10 mL of sterilized Brain Heart Infusion (BHI) agar (Difco 0418-01-5) were prepared. Each plate was inoculated with 1:100 (or 1:10 for slow-growing strains, such as Micrococcus and Streptococcus) dilutions of up to 32 different microorganisms, using a Steers replicator block. […]
Kindly state MIC for each of the entries shown.

CC[C@H]1OC(=O)[C@H](C)[C@@H](O[C@H]2C[C@@](C)(OC)[C@@H](O)[C@H](C)O2)[C@H](C)[C@@H](O[C@@H]2O[C@H](C)C[C@H](N(C)C)[C@H]2O)[C@](C)(O)C[C@@H](C)C(=O)[C@H](C)[C@@H](O)[C@]1(C)O [Ery. A, Erythromycin A, reference compound] | > 100 µg/mL
CC[C@H]1OC(=O)[C@@](C)(F)C(=O)[C@H](C)[C@@H](O[C@@H]2O[C@H](C)C[C@H](N(C)C)[C@H]2O)[C@](C)(OC/C=C/c2cnc3ccc(C=NO)cc3c2)C[C@@H](C)C(=O)[C@H](C)[C@H]2NC(=O)O[C@@]21C [Example 18] | 50 µg/mL

Quick batch: MIC for everything below.
1. CC[C@H]1OC(=O)C(C)(Cl)C(=O)[C@H](C)[C@@H](O[C@@H]2O[C@H](C)C[C@H](N(C)C)[C@H]2O)[C@](C)(OC)C[C@@H](C)C2=NCCN3C(=O)O[C@@]1(C)[C@H]3[C@H]2C (stereo partly drawn) [Example 2]
2. C=CCO[C@]1(C)C[C@@H](C)C(=O)[C@H](C)[C@H]2NC(=O)O[C@]2(C)[C@@H](CC)OC(=O)[C@@](C)(F)C(=O)[C@H](C)[C@H]1O[C@@H]1O[C@H](C)C[C@H](N(C)C)[C@H]1O [Example 4]
3. CC[C@H]1OC(=O)[C@@](C)(F)C(=O)[C@H](C)[C@@H](O[C@@H]2O[C@H](C)C[C@H](N(C)C)[C@H]2O)[C@](C)(OC/C=C/c2cnc3ccc(C=NN=C(C)C)cc3c2)C[C@@H](C)C(=O)[C@H](C)[C@H]2NC(=O)O[C@@]21C [Example 20]
4. CC[C@H]1OC(=O)[C@@](C)(F)C(=O)[C@H](C)[C@@H](O[C@@H]2O[C@H](C)C[C@H](N(C)C)[C@H]2O)[C@](C)(OC/C=C/c2ccc3ncccc3c2)C[C@@H](C)C(=O)[C@H](C)[C@H]2NC(=O)O[C@@]21C [Example 10]

Output line:
1: > 100 µg/mL; 2: > 100 µg/mL; 3: > 100 µg/mL; 4: > 100 µg/mL

----------
Test system: Mycobacterium smegmatis ATCC 114
Test: In vitro agar dilution MIC, organism code UU
Format: cell-based
Settings: Table 1B, in µg/mL (unit assumed)
readout-label: MIC
Give bare numbers.

CC[C@H]1OC(=O)[C@@](C)(F)C(=O)[C@H](C)[C@@H](O[C@@H]2O[C@H](C)C[C@H](N(C)C)[C@H]2O)[C@](C)(OC/C=C/c2cnc3ccc(C=NN)cc3c2)C[C@@H](C)C(=O)[C@H](C)[C@H]2NC(=O)O[C@@]21C | 0.78

Dear reader, for each entry below, please note its MIC.
1. CC[C@H]1OC(=O)C(C)(F)C(=O)[C@H](C)[C@@H](O[C@@H]2O[C@H](C)C[C@H](N(C)C)[C@H]2O)[C@](C)(OCC#CC(=O)c2ccccc2)C[C@@H](C)C(=O)[C@H](C)[C@H]2NC(=O)O[C@@]21C (stereo partly shown)
2. CC[C@H]1OC(=O)[C@@](C)(F)C(=O)[C@H](C)[C@@H](O[C@@H]2O[C@H](C)C[C@H](N(C)C)[C@H]2O)[C@](C)(OC/C=C/c2cnc3ccc(C=O)cc3c2)C[C@@H](C)C(=O)[C@H](C)[C@H]2NC(=O)O[C@@]21C
3. CC[C@H]1OC(=O)[C@@](C)(F)C(=O)[C@H](C)[C@@H](O[C@@H]2O[C@H](C)C[C@H](N(C)C)[C@H]2O)[C@](C)(OC/C=C/c2ccc3ncccc3c2)C[C@@H](C)C(=O)[C@H](C)[C@H]2NC(=O)O[C@@]21C

Output line:
1. 3.1
2. 0.39
3. 0.1
